# system: HPV-11 E2 (full length) (Human papillomavirus type 11, UniProt P04015 1-367)
# Sequence (P04015 whole entry): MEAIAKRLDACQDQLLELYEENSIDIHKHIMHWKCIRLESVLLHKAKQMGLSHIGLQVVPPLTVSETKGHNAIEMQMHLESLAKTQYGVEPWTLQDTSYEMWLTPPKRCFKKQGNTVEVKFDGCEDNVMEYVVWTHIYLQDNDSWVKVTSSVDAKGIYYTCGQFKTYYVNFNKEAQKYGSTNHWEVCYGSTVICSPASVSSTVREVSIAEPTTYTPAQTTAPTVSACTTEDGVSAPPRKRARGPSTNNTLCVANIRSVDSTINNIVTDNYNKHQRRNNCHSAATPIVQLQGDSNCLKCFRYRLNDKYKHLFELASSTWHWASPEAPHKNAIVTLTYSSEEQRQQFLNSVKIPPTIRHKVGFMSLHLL
# method.description: EMSA; 10 C; EMSA: 10 mM HEPES pH 7.9, 50 mM NaCl, 4 mM MgCl2, 10% glycerol, 5 mM DTT, 0.2 mM EDTA, 0.1 mg/mL BSA, 10 ng/uL poly(dI-dC), 10 min 30 C
# experimental.context: protein: recombinant; tags: N-terminal His (pET28a); chain copies: 2; label: 32P
measurement.kind: Kd

According to the records, this binder BS1 (dsDNA) DNA 1: GGTTCAACCGAAAACGGTTATATG DNA 2: CATATAACCGTTTTCGGTTGAACC displays Kd of 5.5 nM

Sourced from paper PMC10095481
